test system: HCT-116; assay: Induction of molecular glue effect mediated DNMT1 degradation in human HCT-116 cells assessed as reduction in DNMT1 protein level by measuring maximal efficacy at 1 uM incubated for 24 hrs by Western blot analysis relative to control; type: cell-based
MEASURED_PROPERTY: Emax

(Q) Request the reported Emax associated with CCCNC(=O)C(Sc1nc(N2CCC(N)CC2)c(C#N)c(CC)c1C#N)c1ccccc1 (stereo not drawn)
(A) 13%

(Q) Query: Emax; subject: CCc1c(C#N)c(SC(C(N)=O)c2ccccc2)nc(N2CCN(C(=O)c3ccc(C(C)C)s3)CC2)c1C#N (stereo not drawn)
(A) 71%

(Q) Requested field: Emax. Item: CCc1c(C#N)c(SC(C(N)=O)c2ccccc2)nc(N(C)CC(=O)NC)c1C#N (stereo not drawn)
(A) 89%

(Q) Entry under review: CCc1c(C#N)c(SC(C(N)=O)c2ccccc2)nc(N2CCNC(=O)CC2)c1C#N (stereo not drawn) . Reported Emax?
(A) 58%

(Q) State the recorded Emax for this entry: CCc1c(C#N)c(SC(C(N)=O)c2ccccc2)nc(N2CCC(=O)N(C)CC2)c1C#N (stereo not drawn)
(A) 86%

(Q) Find the recorded Emax belonging to CCc1c(C#N)c(SC(C(N)=O)c2ccccc2)nc(N2CCN(C)CC2)c1C#N (stereo not drawn) and report it.
(A) 46%

(Q) Quick one: Emax of CCc1c(C#N)c(SC(C(N)=O)c2ccccc2)nc(N2CCC(NC(=O)C34CC5CC(CC(C5)C3)C4)CC2)c1C#N (stereo not drawn) ?
(A) 92%

(Q) Please look up its Emax: CCc1c(C#N)c(SC(C(N)=O)c2ccccc2)nc(N2CCC(NC(=O)C(C)(C)C)CC2)c1C#N (stereo not drawn)
(A) 90%
